# target.under.test: DN-IV quality control recombinant protein (produced by the company) (dengue virus)
# test.details: BLI, antibody on AMC sensor
parameter.measured: kon
For clarity, give the value followed by its unit.

Use these answered entries as a reference point.
>>> val("Mutation 1-28 (antibody, V domains shown) VH: EVQLQQPGPELVKPGASVKMSCKASGYTFTSSVIHWVRQKPGQGLEWIGYMNPYNDGIKYNEKFIGKAILTSDKSSSTAYMQLSSLTSEDSAVYYCTKEGLFYVMDYWGQGTSVTVSS VL: QIVLTQSPAIMSASPGEKVTMTCSATSSVSYMHWYQQKSGTSPKRWIYDTSKLASGVPVRFSGSGSGTSYSLTISSMEAEDAATYFCQYWRSDLPTFGAGTKLELKR")
"438000 M⁻¹ s⁻¹"
>>> val("Mutation 1-5 (antibody, V domains shown) VH: EVQLQQPGPELVKPGASVKMSCKASGYTFTSYVIHWVRQKPGQGLEWIGYMNPYNDGIKYNEKFIGKAILTSDKSSSTAYMQLSSLTSEDSAVYYCTREGLFYVFDYWGQGTSVTVSS VL: QIVLTQSPAIMSASPGEKVTMTCSATSSVSYMHWYQQKSGTSPKRWIYDSSKLASGVPVRFSGSGSGTSYSLTISSMEAEDAATYFCQQWRSDLPTFGAGTKLELKR")
"419000 M⁻¹ s⁻¹"

// query kon value for entry Mutation 1-37 (antibody, V domains shown) VH: EVQLQQPGPELVKPGASVKMSCKASGYTFTSSVIHWVRQKPGQGLEWIGYMNPYNDGIKYNEKFIGKAILTSDKSSSTAYMQLSSLTSEDSAVYYCTREGLFYVFDYWGQGTSVTVSS VL: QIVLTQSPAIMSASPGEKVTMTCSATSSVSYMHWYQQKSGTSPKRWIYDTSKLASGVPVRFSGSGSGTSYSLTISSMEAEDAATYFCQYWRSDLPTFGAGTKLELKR
39900 M⁻¹ s⁻¹
